measured_on: T1, IGSF11 ECD fused to murine-Fc (human; mouse, UniProt Q5DX21 23-241)
T1 construct: also called Fc-fusion IGSF11 ECD; full-length ECD of IGSF11; not shown: murine Fc
T1 sequence: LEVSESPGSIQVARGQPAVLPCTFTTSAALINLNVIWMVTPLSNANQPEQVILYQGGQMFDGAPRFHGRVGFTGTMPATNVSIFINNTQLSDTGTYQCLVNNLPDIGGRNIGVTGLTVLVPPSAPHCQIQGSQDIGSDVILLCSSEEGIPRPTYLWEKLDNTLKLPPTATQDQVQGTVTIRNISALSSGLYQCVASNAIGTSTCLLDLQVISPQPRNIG
method_summary: ELISA, IgG
measured_metric: EC50

>>> measured_result("C-010 (IgG1 format) (antibody, V domains shown, wildtype human IgG1 and kappa or lambda constant regions) VH: QVQLVQSGAEVKKPGSSVKVSCKASGGTFSSYAISWVRQAPGQGLEWMGGIIPIFGTANYAQKFQGRVTITADESTSTAYMELSSLRSEDTAVYYCARGYGEYYPAFDVWGQGTLVTVSS VL: SYELTQPPSVSVSPGQTASITCSGDKLGDKYASWYQQKPGQSPVLVIYQDSKRPSGIPERFSGSNSGNTATLTISGTQAEDEADYYCASYAHTHSTWVFGGGTKLTVL")
"0.02 to 0.1 µM"
